Data origin, for the record: patent US20170088602A1

target.or.test.system: T1, human myostatin (mature, recombinant; R&D Systems) (human, UniProt O14793 267-375)
T1 construct: biotinylated in the mRNA display selection; also called GDF-8; mature myostatin
T1 sequence: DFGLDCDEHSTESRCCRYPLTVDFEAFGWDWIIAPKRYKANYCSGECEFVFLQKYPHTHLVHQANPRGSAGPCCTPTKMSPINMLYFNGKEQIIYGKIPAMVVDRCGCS
procedure.details: competitive HTRF (1889E01/myostatin/ActRIIb-Fc sandwich)
result.type: IC50 (nM)
Write the value in nM as a bare number.

Examples from the recorded data:
# binder, IC50 (nM)
records = [
    ("ATI-1376 [40K 2-branch PEG] (designed binder, 40K 2-branch PEG on the Cys of the EGSGC tail, cysteine mutant of 3115_E06) MGVSDVPRDLEVVAATPTSLLISWDAPAGLARYYRITYGETGGNSPVQEFTVVGRGNTATISGLKPGVDYTITVYAVTIFRDGPVTWDPISINYRTEGSGCHHHHHH", 0.32),
    ("ATI-1378 [40K 2-branch PEG] (designed binder, 40K 2-branch PEG on the Cys of the EGSGC tail, cysteine mutant of 3146_A08) MGVSDVPRDLEVVAATPTSLLISWSLPNPGNAHYYRITYGETGGNSPVQEFTVPGRGVTATISGLKPGVDYTITVYAVTVTDTGFITYKPISINYRTEGSGCHHHHHH", 1.29),
    ("ATI-1379 [40K 2-branch PEG] (designed binder, 40K 2-branch PEG on the Cys of the EGSGC tail) MGVSDVPRDLEVVAATPTSLLISWSLPHQGKANYYRITYGETGGNSPVQEFTVPGRGVTATISGLKPGVDYTITVYAVTVTDTGYLKYKPISINYRTEGSGCHHHHHH", 0.28),
]

Exercise: Fill blank: measured IC50 of the binder 3115_E06 (designed binder) MGVSDVPRDLEVVAATPTSLLISWDAPAGLARYYRITYGETGGNSPVQEFTVVGRGNTATISGLKPGVDYTITVYAVTIFRDGPVTWDPISINYRTEIDKPSQHHHHHH is ____.
Solution: 0.14
